- Tested on: HEK293 cells overexpressing APOL1 G2
- test protocol: APOL1 G2 HEK293 cell rescue assay (reversal of cell death caused by overexpression of APOL1)
- Format: cell-based
- particulars: Homo sapiens, HEK293, HEK293 overexpressing APOL1 G2; geometric mean of at least 2 assay runs; † = single assay run
Would you kindly list pEC50 for each of these compounds?
Give bare numbers, as −log10 of the molar value.

Field: example entries. Status: answers known.
>>> df
                           smiles_structure                       measured_target  measured_quantity  numeric_readout
0  CP(C)(=O)C1(c2ncc(OCCN3CCC4(CC3)C(=O)Nc3ccc(Cl)cc34)cn2)CC1  HEK293 cells overexpressing APOL1 G2              pEC50             6.71
1  O=C(c1ccc(OCCN2CCC3(CC2)C(=O)Nc2ccc(Cl)cc23)cc1F)N1CCC1  HEK293 cells overexpressing APOL1 G2              pEC50             7.10
2  O=C1Nc2ccc(Cl)cc2C12CCN(CCOc1ccc(S(=O)(=O)C3CC3)cc1)CC2  HEK293 cells overexpressing APOL1 G2              pEC50             7.48

State the recorded pEC50 for every item in the following list.
1. C[C@]1(O)C[C@@H](N2C(=O)CCc3cc(OCCN4CCC5(CC4)C(=O)Nc4ccc(C(F)F)cc45)cnc32)C1
2. O=C1Nc2ccc(Cl)cc2C12CCN(CCOc1cnc3c(N4CC(O)C4)nccc3c1)CC2
3. C[C@]1(O)C[C@@H](N2C(=O)CCc3cc(OCCN4CCC5(CC4)C(=O)Nc4ccc(C#N)cc45)cc(C(F)(F)F)c32)C1
4. CN1CCc2cc(OCCN3CCC4(CC3)C(=O)Nc3ccc(C#N)cc34)ccc2S1(=O)=O

Reply |
1: 7.47; 2: 7.61; 3: 7.84; 4: 7.17

====

- System: Trypanosoma brucei Lister 427 VSG221 with APOL1 G1 recombinant protein
- test protocol: APOL1 G1 trypanosome cell rescue assay (Example B5)
- Assay type: cell-based
- particulars: Trypanosoma brucei, 20 h, read-out: APOL1 G1 Trypanosome Rescue EC50, Trypanosoma brucei Lister 427 VSG221 with APOL1 G1 recombinant protein, 20 hours, CellTiter-Glo; geometric mean of at least 2 assay runs; † = single assay run
Mark 1 (yes) only for EC50 values smaller than 200 nM; exact matches and larger values are 0 (no).

>>> print(df.to_string())
                                   molecule  discrete_label
0  C[C@]1(O)C[C@@H](c2nc3cc(OCCN4CCC5(CC4)C(=O)Nc4ccc(Cl)cc45)cc(C(F)(F)F)c3[nH]2)C1         1 (yes)
1  CS(=O)(=O)c1ccc(OCCN2CCC3(CC2)C(=O)Nc2ccc(Cl)cc23)cc1C#N         1 (yes)
2  O=C1Nc2ccc(Cl)cc2C12CCN(CCOc1ccc(S(=O)(=O)[C@H]3C[C@H](O)C3)cc1)CC2         1 (yes)
3  O=C1CCc2cc(OCCN3CCC4(CC3)C(=O)Nc3ccc(Cl)cc34)cnc2N1C1CC(CO)C1 (stereo not drawn)         1 (yes)
4  CN1c2ccc(OCCN3CCC4(CC3)C(=O)Nc3ccc(Cl)cc34)cc2CCS1(=O)=O         1 (yes)

Ask | Criterion: EC50 strictly below 200 nM. Is it met by `CS(=O)(=O)C1(c2c(F)cc(OCCN3CCC4(CC3)C(=O)Nc3ccc(C#N)cc34)cc2F)COC1` ?
Reply | 1 (yes)

Ask | Similarly, `CN1C(=O)C2(CCN(CCOc3cc(F)c(C4(S(C)(=O)=O)COC4)c(F)c3)CC2)c2cc(C#N)ccc21` ?
Reply | 0 (no)

Ask | For CC(COc1ccc2c(c1)CCC(=O)N2C)N1CCC2(CC1)C(=O)Nc1ccc(Cl)cc12 (single isomer, unassigned) then?
Reply | 1 (yes)

Ask | Subsequent entry: `CN1C(=O)C2(CCN(CCOc3ccc(C4(S(C)(=O)=O)COC4)cc3)CC2)c2cc(C#N)ccc21`
Reply | 0 (no)

Ask | `C[C@]1(O)C[C@@H](n2c(=O)ccc3cc(OCCN4CCC5(CC4)C(=O)Nc4ccc(Cl)cc45)cnc32)C1` , same question.
Reply | 1 (yes)
